The following molecules are shown together with reported Ki values.
# TARGET ENTITY: Trypsin (Homo sapiens, UniProt P07477+P07478+P35030)
# ASSAY METHOD TEXT: Inhibition of human trypsin by fluorescence based assay using 25 uM Boc-Gln-Ala-Arg-7-amido-4-methyl coumarinhydrobromide as substrate
# Type: protein assay

# CHEMICAL STRING, Ki [nM]
rows = [
    ("N=C(N)c1ccc2[nH]c(-c3ccccc3O)nc2c1", 23000),
    ("N=C(N)c1ccc2[nH]c(-c3cccc(C4(O)CCCCC4)n3)cc2c1", 400),
    ("N=C(N)c1ccc2[nH]c(-c3cccc(C4(F)CCCCC4)n3)cc2c1", 500),
    ("N=C(N)c1ccc2[nH]c(-c3ccccc3O)cc2c1", 8000),
    ("CC(C)c1cccc(-c2cc3cc(C(=N)N)ccc3[nH]2)c1O", 800),
    ("N=C(N)c1ccc2[nH]c(-c3cccc(C4(O)CCCCC4)[n+]3[O-])cc2c1", 800),
]

###

The following compounds are shown together with reported pKi values.
# TARGET ENTITY: Suppressor of tumorigenicity 14 protein (Homo sapiens, UniProt Q9Y5Y6)
# Sequence (Q9Y5Y6 whole entry): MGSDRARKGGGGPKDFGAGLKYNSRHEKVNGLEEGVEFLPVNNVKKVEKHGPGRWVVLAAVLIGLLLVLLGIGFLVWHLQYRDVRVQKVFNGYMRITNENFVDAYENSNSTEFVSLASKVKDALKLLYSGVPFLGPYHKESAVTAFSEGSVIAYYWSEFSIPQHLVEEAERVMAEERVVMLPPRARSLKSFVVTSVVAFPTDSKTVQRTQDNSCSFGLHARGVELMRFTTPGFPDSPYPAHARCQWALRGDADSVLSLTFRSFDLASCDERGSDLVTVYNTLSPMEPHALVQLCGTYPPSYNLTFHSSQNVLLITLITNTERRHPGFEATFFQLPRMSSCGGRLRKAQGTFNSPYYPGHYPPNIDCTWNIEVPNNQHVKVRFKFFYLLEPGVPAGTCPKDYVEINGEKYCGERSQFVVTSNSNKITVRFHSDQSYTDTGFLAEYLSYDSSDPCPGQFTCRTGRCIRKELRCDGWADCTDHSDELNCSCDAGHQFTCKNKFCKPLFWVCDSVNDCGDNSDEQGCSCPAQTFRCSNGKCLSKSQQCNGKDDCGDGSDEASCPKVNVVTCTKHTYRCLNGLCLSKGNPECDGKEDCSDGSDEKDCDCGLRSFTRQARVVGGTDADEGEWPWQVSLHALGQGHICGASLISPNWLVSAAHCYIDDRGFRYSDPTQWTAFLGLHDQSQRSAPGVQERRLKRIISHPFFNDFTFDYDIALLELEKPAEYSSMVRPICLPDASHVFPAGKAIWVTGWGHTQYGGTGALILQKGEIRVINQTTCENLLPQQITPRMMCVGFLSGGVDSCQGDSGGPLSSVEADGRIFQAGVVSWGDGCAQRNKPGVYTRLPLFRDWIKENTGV
# ASSAY METHOD TEXT: Inhibition of human recombinant matriptase by fluorescence based assay using 20 uM Boc-Gln-Ala-Arg-7-amido-4-methyl coumarinhydrobromide as substrate
pKi: −log10 of the molar value.

# CHEMICAL STRING, pKi
records = [
    ("N=C(N)c1ccc2[nH]c(-c3cccc(N4CCCCC4)n3)cc2c1", 5.82),
    ("N=C(N)c1ccc2[nH]c(-c3cccc(C4(O)CCCCC4)[n+]3[O-])cc2c1", 5.96),
    ("N=C(N)c1ccc2[nH]c(-c3ccccc3O)cc2c1", 4.22),
    ("N=C(N)c1ccc2[nH]c(-c3cccc(C4(O)CCCCC4)n3)cc2c1", 5.68),
    ("CC(C)c1cccc(-c2cc3cc(C(=N)N)ccc3[nH]2)c1O", 5.36),
    ("N=C(N)c1ccc2[nH]c(-c3cccc(N4CCCCC4)c3O)cc2c1", 6.30),
    ("N=C(N)c1ccc2[nH]c(-c3cccc(C4(F)CCCCC4)n3)cc2c1", 6.10),
    ("CC(C)c1cc(Cl)cc(-c2cc3cc(C(=N)N)ccc3[nH]2)c1O", 5.32),
]

###

The following compounds are shown together with reported EC50 values.
# Tested on: PC-3
# ASSAY METHOD TEXT: Antimigratory activity in human PC3 cells by transwell-chamber assay
# Format: functional, cell-based

# CHEMICAL STRING, EC50 (µM)
rows = [
    ("N=C(N)c1ccc2[nH]c(-c3cccc(C4(O)CCCCC4)n3)cc2c1", 2.6),
    ("N=C(N)c1ccc2[nH]c(-c3cccc(C4(O)CCCCC4)[n+]3[O-])cc2c1", 1.8),
    ("N=C(N)c1ccc2[nH]c(-c3cccc(N4CCCCC4)n3)cc2c1", 5.2),
    ("N=C(N)c1ccc2[nH]c(-c3cccc(N4CCCCC4)c3O)cc2c1", 4.9),
]

###

The following compounds are shown together with reported Activity values.
# ASSAY METHOD TEXT: Cytotoxicity against human LNCaP-C42B4 cells at 10 uM after 72 hrs by calcein AM assay
# Type: cell-based
# TEST SETTINGS: lncap-c42b4, 72 h
READOUT TYPE: Activity

# CHEMICAL STRING, REPORTED MEASUREMENT
data = [
    ("N=C(N)c1ccc2[nH]c(-c3cccc(C4(O)CCCCC4)[n+]3[O-])cc2c1", "1%"),
    ("N=C(N)c1ccc2[nH]c(-c3cccc(C4(O)CCCCC4)n3)cc2c1", "8%"),
    ("N=C(N)c1ccc2[nH]c(-c3cccc(N4CCCCC4)c3O)cc2c1", "18%"),
    ("N=C(N)c1ccc2[nH]c(-c3cccc(N4CCCCC4)n3)cc2c1", "12%"),
]

###

Target or system Urokinase-type plasminogen activator (Homo sapiens); recorded quantity Ki.

# CHEMICAL STRING, Ki
measured = [
    ("N=C(N)c1ccc2[nH]c(-c3cccc(N4CCCCC4)n3)cc2c1", "2.3 µM"),
    ("N=C(N)c1ccc2[nH]c(-c3cccc(C4(O)CCCCC4)[n+]3[O-])cc2c1", "7.8 µM"),
    ("N=C(N)c1ccc2[nH]c(-c3cccc(C4(F)CCCCC4)n3)cc2c1", "2.7 µM"),
    ("N=C(N)c1ccc2[nH]c(-c3cccc(C4(O)CCCCC4)n3)cc2c1", "1.3 µM"),
]

###

Target or system Prothrombin (Homo sapiens); recorded quantity pKi.
pKi: −log10 of the molar value.
READOUT TYPE: pKi

# CHEMICAL STRING, TARGET ENTITY, REPORTED MEASUREMENT
rows = [
    ("N=C(N)c1ccc2[nH]c(-c3cccc(C4(O)CCCCC4)[n+]3[O-])cc2c1", "Prothrombin (Homo sapiens)", 5.07),
    ("CC(C)c1cccc(-c2cc3cc(C(=N)N)ccc3[nH]2)c1O", "Prothrombin (Homo sapiens)", 5.72),
    ("N=C(N)c1ccc2[nH]c(-c3cccc(C4(O)CCCCC4)n3)cc2c1", "Prothrombin (Homo sapiens)", 5.68),
    ("N=C(N)c1ccc2[nH]c(-c3cccc(C4(F)CCCCC4)n3)cc2c1", "Prothrombin (Homo sapiens)", 5.44),
]

###

# TARGET ENTITY: Plasminogen (Homo sapiens)
# ASSAY METHOD TEXT: Inhibition of human plasmin at 5 uM by fluorescence based assay using pyroGlu-Phe-Lys-pNA.HCl as substrate
The following compounds are shown together with reported inhibition values.

# CHEMICAL STRING, inhibition [%]
measured = [
    ("N=C(N)c1ccc2[nH]c(-c3cccc(C4(F)CCCCC4)n3)cc2c1", 11),
    ("CC(C)c1cc(Cl)cc(-c2cc3cc(C(=N)N)ccc3[nH]2)c1O", 5),
    ("N=C(N)c1ccc2[nH]c(-c3cccc(C4(O)CCCCC4)n3)cc2c1", 24),
    ("N=C(N)c1ccc2[nH]c(-c3cccc(C4(O)CCCCC4)[n+]3[O-])cc2c1", 11),
]

###

The following compounds are shown together with reported remaining at 20 min, 1 µM values.
# ASSAY METHOD TEXT: Stability in mouse liver microsomes assessed as compound remaining at 1 uM after 20 mins by LC-MS/MS analysis
# Format: ADME
# TEST SETTINGS: read-out: Stability
READOUT TYPE: remaining at 20 min, 1 µM (%)

# CHEMICAL STRING, REPORTED MEASUREMENT
data = [
    ("N=C(N)c1ccc2[nH]c(-c3cccc(N4CCCCC4)c3O)cc2c1", 38),
    ("N=C(N)c1ccc2[nH]c(-c3cccc(N4CCCCC4)n3)cc2c1", 82),
    ("N=C(N)c1ccc2[nH]c(-c3cccc(C4(O)CCCCC4)n3)cc2c1", 86),
    ("N=C(N)c1ccc2[nH]c(-c3cccc(C4(O)CCCCC4)[n+]3[O-])cc2c1", 100),
]
